Tested on: C33A
protocol-details: Confirmatory qHTS for gynecologic anti-cancer compounds from libraries of approved drugs and bioactive compounds; also: nearly all actives have a fitted effect of over 55% in size
run-conditions: gynecologic cancer cell panel viability, ATPlite luminescence, 48 h; series mostly up to 57.6 µM
Inconclusive results are not listed. Activity calls are given as the source filed them. Calls follow the shape of the dose curve; as a rule, active = well fitted cell-killing curve with a large enough effect; inconclusive = small, poorly fitted or top-dose-only effect, or effect the other way; inactive = no such curve, though single readings can be large or run the other way.
Just give me one of these, please: active, inactive

Tell me the recorded outcome of this test for "COc1ccc2c(c1)c(CC(=O)O)c(C)n2C(=O)c1ccc(Cl)cc1" .
inactive

Also CC(=O)OC12COC1CC(O)C1(C)C(=O)C(O)C3=C(C)C(OC(=O)C(O)C(NC(=O)OC(C)(C)C)c4ccccc4)CC(O)(C(OC(=O)c4ccccc4)C21)C3(C)C (stereo not drawn) ?
inactive

Follow-up entry: CCC1C(=O)N(C)c2cnc(Nc3ccc(C(=O)NC4CCC(N5CCN(CC6CC6)CC5)CC4)cc3OC)nc2N1C(C)C (stereo not drawn)
active

// repeat for "CCN[C@H]1C[C@H](C)S(=O)(=O)c2sc(S(N)(=O)=O)cc21" and report
inactive

Next: "O=C(NOCC1CC1)c1ccc(F)c(F)c1Nc1ccc(I)cc1Cl"
inactive

Now the compound "COc1cc(N2CCC(N3CCN(C)CC3)CC2)ccc1Nc1ncc(Cl)c(Nc2ccccc2S(=O)(=O)C(C)C)n1"
active

Now the same for "CN(Cc1cnc2nc(N)nc(N)c2n1)c1ccc(C(=O)N[C@@H](CCC(=O)O)C(=O)O)cc1"
inactive

Proceed to "Cn1cnc2c(F)c(Nc3ccc(Br)cc3Cl)c(C(=O)NOCCO)cc21"
inactive

Try this compound next: "COc1ccc(CCC(=O)c2c(O)cc(O[C@@H]3O[C@H](CO)[C@@H](O)[C@H](O)[C@H]3O[C@@H]3O[C@@H](C)[C@H](O)[C@@H](O)[C@H]3O)cc2O)cc1O"
inactive

Try the compound "CCCCc1oc2ccc(NS(C)(=O)=O)cc2c1C(=O)c1ccc(OCCCN(CCCC)CCCC)cc1"
active

Likewise for "CCN1C[C@H](C)n2c(c(O)c3c(=O)n(Cc4ccc(F)c(Cl)c4)nc(C(=O)NC)c32)C1=O" ?
inactive

Next compound up: "CCCC(=O)O[C@]1(C(=O)CCl)[C@@H](C)C[C@H]2[C@@H]3CCC4=CC(=O)C=C[C@]4(C)[C@@]3(F)C(=O)C[C@@]21C"
inactive

Thanks! And "COc1ccc2cc3[n+](cc2c1OC)CCc1cc2c(cc1-3)OCO2" ?
inactive

What about this compound? "CCCCc1oc2ccccc2c1C(=O)c1cc(I)c(OCCN(CC)CC)c(I)c1"
active

Now this one: "OCc1ccc(-c2ccc(-c3ccc(CO)s3)o2)s1"
inactive

Also need CC(Oc1ccc2[nH]nc(/C=C/c3cnn(CCO)c3)c2c1)c1c(Cl)cncc1Cl (stereo not drawn) , thanks.
inactive

And then CC(=O)c1cnc2ccc(-c3cc(Cl)c(O)c(Cl)c3)nc2c1NC1CCC(CN(C)C)CC1 (stereo not drawn) , what is it?
active

What would you report for "COc1ccc2c(c1OC)C(=O)O[C@@H]2[C@H]1c2c(cc3c(c2OC)OCO3)CCN1C" ?
inactive

----------
System: C33A
protocol-details: Confirmatory qHTS for gynecologic anti-cancer compounds from libraries of approved drugs and bioactive compounds; also: nearly all actives have a fitted effect of over 55% in size
run-conditions: gynecologic cancer cell panel viability, ATPlite luminescence, 48 h; series mostly up to 57.6 µM
Description: National Center for Advancing Translational Sciences [NCATS] Assay Overview: Chemotherapeutic drug responses vary from cancer to cancer and from patient to patient. […] ATPlite is a luminescence based assay reliant on the conversion of a luciferase substrate to light in the presence of ATP. As a cytotoxic compound will suppress growth and decrease the number of cells, the concentration of ATP will decrease, and less light signal will be detected in the well. […]
Inconclusive results are not listed. The source made the active and inactive calls. Calls follow the shape of the dose curve; as a rule, active = well fitted cell-killing curve with a large enough effect; inconclusive = small, poorly fitted or top-dose-only effect, or effect the other way; inactive = no such curve, though single readings can be large or run the other way.
Use one of these outcomes when replying: label 1 = active, label 0 = inactive

What is the recorded call for this compound in the test? "CN(C)c1ccc2nc3ccc(=[N+](C)C)cc-3sc2c1"
label 1

Further, for "Nc1ccccc1NC(=O)c1ccc(CNc2nccc(-c3cccnc3)n2)cc1" ?
label 1

Subsequent entry: "CC(=O)Nc1cccc(-n2c(=O)n(C3CC3)c(=O)c3c(Nc4ccc(I)cc4F)n(C)c(=O)c(C)c32)c1"
label 0

Please do the same for "Cn1c(=O)c(-c2c(Cl)cccc2Cl)cc2cnc(Nc3cccc(C(=O)O)c3)nc21" as well.
label 1

How about this compound: "COc1cc2c(NC3CCN(C(C)C)CC3)nc(C3CCCCC3)nc2cc1OCCCN1CCCC1"
label 1

Further, for "Cc1cnc(Nc2ccc(CN3CCOCC3)cc2)nc1Nc1cccc(S(=O)(=O)NC(C)(C)C)c1" ?
label 1

Same for "COc1c(C)c2c(c(O)c1C/C=C(\C)CCC(=O)O)C(=O)OC2"
label 0

Now consider CC(=O)NCC(=O)N1C2CCC1c1cc(Nc3ncc(C(F)(F)F)c(NC4CCC4)n3)ccc12 (configuration not stated) and answer again.
label 0

Next up: "CCc1nc(C(N)=O)c(Nc2ccc(N3CCC(N4CCN(C)CC4)CC3)c(OC)c2)nc1NC1CCOCC1"
label 0

Then "CS(=O)(=O)c1ccc(-c2cnc(N)c(C(=O)Nc3ccccc3)n2)cc1" ?
label 0

Input "N=C(N)c1ccc(OCCCCCOc2ccc(C(=N)N)cc2)cc1"
label 0

Try this compound next: Cn1c(=O)c(F)c(Nc2ccc(I)cc2F)c2c(=O)n(CC(O)CO)cnc21 (configuration not stated)
label 0

Input "CCS(=O)(=O)c1cccc(-c2cc(C(=O)NC3CCN(C)CC3)c(C)c3[nH]c4ncc(C)cc4c23)c1"
label 1

Ok, now "COc1cc2nccc(Oc3ccc(NC(=O)C4(C(=O)Nc5ccc(F)cc5)CC4)cc3)c2cc1OC"
label 1

// next record "O=C1NC(=O)C(c2cnc3ccccn23)=C1c1cn2c3c(cccc13)CN(C(=O)N1CCOCC1)CC2"
label 0

Input "CN(C)/N=N/c1nc[nH]c1C(N)=O"
label 0

Same question for CN(C)C/C=C/C(=O)Nc1cc2c(Nc3ccc(F)c(Cl)c3)ncnc2cc1OC1CCOC1 (configuration not stated) please.
label 1

Do the same for "COc1cc2c(Nc3ccc(NC(=O)c4ccccc4)cc3)ncnc2cc1OCCCN1CCOCC1" please
label 1

Ok, now CC(C)Oc1ccc(C(=O)NC(CNC(=O)CN(C)C)Cc2ccc(-c3cn4cccc(C(C)O)c4n3)cc2)cc1Cl (configuration not stated)
label 0

// repeat for "C#C[C@]1(O)CC[C@H]2[C@@H]3CCC4=CC(=O)CC[C@@H]4[C@H]3CC[C@@]21CC" and report
label 0

Ok, now "CC(C)Nc1cc(-c2c[nH]c(C(=O)N[C@H](CO)c3cccc(Cl)c3)c2)c(Cl)cn1"
label 0

Can you handle "CNC(=O)c1nn(C)c2c1C(C)(C)Cc1cnc(Nc3ccc(N4CCN(C)CC4)cc3)nc1-2" next?
label 0

Let us now turn to "COc1ccc(OC)c(-c2nnc3ccc(-c4ccc(OC)c(O[C@@H]5CCOC5)c4)nn23)c1"
label 0

Same for CC(Oc1cc(-n2cnc3ccc(CN4CCN(C)CC4)cc32)sc1C(N)=O)c1ccccc1C(F)(F)F (configuration not stated)
label 1

Then CCN(CC)CCCC(C)Nc1ccnc2cc(Cl)ccc12 (configuration not stated) ?
label 0

Continue with "CN1CCN(c2cccc(Nc3nc4c(-c5ccc(S(C)(=O)=O)cc5)cccn4n3)c2)CC1"
label 0

Moving on to the next compound: "Nc1ccccc1NC(=O)c1ccc(CNC(=O)OCc2cccnc2)cc1"
label 1

Subsequent entry: "CC1=C(CO)C(=O)O[C@@H]([C@@H](C)[C@H]2CC[C@H]3[C@@H]4C[C@H]5O[C@]56[C@@H](O)C=CC(=O)[C@]6(C)[C@H]4CC[C@]23C)C1"
label 1

Same for CN1C(=O)C(Cc2c[nH]c3ccccc23)NC1=S (configuration not stated)
label 0

What do we get for "Cc1cc(Nc2cc(N3CCN(C)CC3)nc(Sc3ccc(NC(=O)C4CC4)cc3)n2)n[nH]1" ?
label 0

Entry to check: "COc1cc(Nc2c(C#N)cnc3cc(OCCCN4CCN(C)CC4)c(OC)cc23)c(Cl)cc1Cl"
label 1

And what about the compound "COc1cc2c(Oc3ccc(-c4cnc(Nc5ccc(F)cc5)n(C)c4=O)cc3F)ccnc2cc1OCCCN1CCOCC1" ?
label 0

Further, for "CC(C)c1nn(-c2c(Cl)cccc2Cl)c2nc(Cc3ccc(OCCO)cc3)[nH]c(=O)c12" ?
label 1

Please give the result for COc1cc(-c2nn(C3CCC(N4CCN(C(C)=O)CC4)CC3)c3ncnc(N)c23)ccc1NC(=O)c1cc2ccccc2n1C (configuration not stated) too.
label 0

Quick one: Cc1ccccc1C(OCCN(C)C)c1ccccc1 (configuration not stated)
label 0

Would you mind doing CN(C)CCC(CSc1ccccc1)Nc1ccc(S(=O)(=O)NC(=O)c2ccc(N3CCN(Cc4ccccc4-c4ccc(Cl)cc4)CC3)cc2)cc1[N+](=O)[O-] (configuration not stated) as well?
label 0

Next entry: "COCCOc1nc(-c2ccc(Cl)c(Cl)c2)n(-c2ccc(NC(=O)CCl)cc2)n1"
label 1
